Ref: ChEMBL document CHEMBL1141070

assay: Maximum time corresponding to maximum concentration after administration to rats at a dose of 2.5 mg/kg orally; type: ADME, organism-based; set-up: dose 2.5 mg/kg, route oral; settings: rat, in vivo, po
PARAMETER: Tmax (h)
Kindly provide the numeric value in h only, without the unit symbol.

[in] Quick one: Tmax for "O=C(O)C1(c2ccc(-c3ccc(C(F)(F)F)cc3)c(F)c2)CC1" ?
[out] 4

====

experiment: Maximal concentration in rats after 0.5 mg/kg intravenous dose; format: ADME, organism-based; set-up: dose 0.5 mg/kg, route intravenous; details: rat, in vivo
Task for the reader: assign each of the following compounds its reported Cmax.
Your answer is read as ng/mL, so omit the unit and give the number.

[in] What does the data say about its Cmax? Entry: "O=C(O)C1(c2ccc(-c3ccc(Cl)c(Cl)c3)c(F)c2)CC1"
[out] 6100

[in] Reported Cmax for "O=C(O)C1(c2ccc(-c3ccc(C(F)(F)F)cc3)c(F)c2)CC1" : what is it?
[out] 14400
